Test: Intrinsic clearance in human liver S9 microsomes at 1 uM in presence of NADPH by LC-MS/MS analysis
Assay type: ADME, S9 microsome
Conditions: read-out: CLH
microsomal CLint at 1 µM for assorted molecules
Measured Attribute: microsomal CLint at 1 µM

| Smiles Entry | Measured Attribute | Experimental Value |
| --- | --- | --- |
| O=C(CCn1cnc([N+](=O)[O-])n1)Nc1cccc(OCc2ccccc2)c1 | microsomal CLint at 1 µM | 18.7 µL/min/mg |
| COc1ccc2c(c1)[C@]13CCCC[C@@H]1[C@H](C2)N(C)CC3 | microsomal CLint at 1 µM | 24.2 µL/min/mg |
| O=C(CCn1cnc([N+](=O)[O-])n1)Nc1cccc(-c2ccccc2)c1 | microsomal CLint at 1 µM | < 12.8 µL/min/mg |
